Where do these numbers come from? They come from ChEMBL document CHEMBL1811814.

# Tested on: U-251
# TEST_NAME: Growth inhibition of human U251 cells assessed tumor cell growth at 10^-5 M
# Format: functional
# Parameters: scale not given: the % may be the effect or the level left
Exercise: for every item that follows, state its recorded Activity.
One number for each entry, in %.

Look over these answered cases.
smiles_entry=C=CCn1cc(/C=C2\C(=O)N(c3cccc(Cl)c3)N=C2C)c2ccccc21 observation_type=Activity unit_annotation=% value_reported=98.8
smiles_entry=CC1=NN(c2cccc(Cl)c2)C(=O)/C1=C\c1cn(S(=O)(=O)c2ccc(C)cc2)c2ccccc12 observation_type=Activity unit_annotation=% value_reported=102.73
smiles_entry=O=C1/C(=C\c2ccccn2)c2ccccc2N1c1c(Cl)cccc1Cl observation_type=Activity unit_annotation=% value_reported=-2.48
smiles_entry=CC1=NN(c2cccc(Cl)c2)C(=O)/C1=C\c1c(O)ccc2ccccc12 observation_type=Activity unit_annotation=% value_reported=-10.7
smiles_entry=CN1C(=O)C(=Cc2coc3ccccc3c2=O)C(=O)N(C)C1=O observation_type=Activity unit_annotation=% value_reported=93.36
smiles_entry=O=C1Nc2ccccc2/C1=C/c1cn(C(=O)c2ccc(Cl)cc2)c2ccccc12 observation_type=Activity unit_annotation=% value_reported=99.4
smiles_entry=C#CCN1C(=O)/C(=C\c2cn(CC#C)c3ccccc23)c2ccccc21 observation_type=Activity unit_annotation=% value_reported=98.4

Please look at the following compound next.
Query (compound): `CC1=NN(c2cccc(Cl)c2)C(=O)/C1=C\c1c[nH]c2ccccc12` ; field requested: Activity
103.49

====

# Test system: SW-620
# TEST_NAME: Growth inhibition of human SW620 cells assessed tumor cell growth at 10^-5 M
# Assay type: functional
# Set-up: scale not given: the % may be the effect or the level left
OBSERVATION_TYPE: Activity (%)
Numbers only, in %.

Look over these answered cases.
smiles_entry=O=C1/C(=C\c2cn(C(=O)c3ccccc3)c3ccccc23)c2ccccc2N1c1c(Cl)cccc1Cl value_reported=104.6
smiles_entry=Cc1ccc(S(=O)(=O)n2cc(/C=C3\C(=O)Nc4ccccc43)c3ccccc32)cc1 value_reported=103
smiles_entry=C=CCn1cc(/C=C2\C(=O)N(c3c(Cl)cccc3Cl)c3ccccc32)c2ccccc21 value_reported=86.9
smiles_entry=CC1=NN(c2cccc(Cl)c2)C(=O)/C1=C\C=C\c1ccccc1 value_reported=1.26

Please look at the following compound next.
Query (compound): `CC1=NN(c2cccc(Cl)c2)C(=O)/C1=C\c1coc2ccccc2c1=O` ; field requested: Activity
98.74

====

# Tested on: PC-3
# TEST_NAME: Growth inhibition of human PC3 cells assessed tumor cell growth at 10^-5 M
# Type: functional
# Design: scale not given: the % may be the effect or the level left
Exercise: for every item that follows, state its recorded Activity.
Answers are plain numbers, in %.

Look over these answered cases.
smiles_entry=C=CCn1cc(/C=C2\C(=O)N(c3c(Cl)cccc3Cl)c3ccccc32)c2ccccc21 observation_type=Activity value_reported=58.2
smiles_entry=O=C1/C(=C\c2ccccn2)c2ccccc2N1c1c(Cl)cccc1Cl observation_type=Activity value_reported=31.44
smiles_entry=CC1=NN(c2cccc(Cl)c2)C(=O)/C1=C\c1c(O)ccc2ccccc12 observation_type=Activity value_reported=33.03

Could you report Activity for every entry in the following list?
1. CC1=NN(c2cccc(Cl)c2)C(=O)/C1=C\c1cn(Cc2ccccc2)c2ccccc12
2. O=C1/C(=C\c2cn(Cc3ccccc3)c3ccccc23)c2ccccc2N1Cc1ccccc1
3. O=C1/C(=C\c2cn(C(=O)c3ccccc3)c3ccccc23)c2ccccc2N1c1c(Cl)cccc1Cl
4. Cc1ccc(S(=O)(=O)N2C(=O)/C(=C\c3cn(S(=O)(=O)c4ccc(C)cc4)c4ccccc34)c3ccccc32)cc1
5. CC1=NN(c2cccc(Cl)c2)C(=O)/C1=C\c1ccccn1

1. 84.66
2. 80.8
3. 71.8
4. 71.7
5. 113.15
